- Tested on: Staphylococcus aureus
- Test description: Bactericidal activity against Staphylococcus aureus ATCC 6538 incubated for 24 hrs followed by serial sub-cultivation and measured after 24 hrs by microdilution method
- Format: functional
Listed here are compounds together with their documented MBC99.5.
Kindly answer with a numeric value in ×10⁻² umol/ml, unit omitted.

Please review the entries below; each comes with its answer.
CN[C@@H]1[C@H](O[C@H]2[C@H](O[C@H]3[C@H](O)[C@@H](O)[C@H](N=C(N)N)[C@@H](O)[C@@H]3N=C(N)N)O[C@@H](C)[C@]2(O)C=O)O[C@@H](CO)[C@H](O)[C@H]1O [STREPTOMYCIN]; 34.4
O=C(NN1C(=O)CSC1c1c(F)cccc1Cl)c1nsc2ccccc12 (stereo not given); 36.8
O=C(Cc1nsc2ccccc12)NN1C(=O)CSC1c1ccccc1Cl (stereo not given); 37.2
O=C(Cc1nsc2ccccc12)NN1C(=O)CSC1c1c(F)cccc1F (stereo not given); 37

Query: Which MBC99.5 is reported for this compound? CC1(C)S[C@@H]2[C@H](NC(=O)[C@H](N)c3ccccc3)C(=O)N2[C@H]1C(=O)O [AMPICILLIN]
Result: 37.2
